Values from patent US9856254B2

Where a name gives a salt, the structure may show the parent alone.
melting point reference

Record excerpt, results attached:
| compound | readoutValue |
| --- | --- |
| CCCn1c(COC)nc2c(N)nc3ccc(OCCC4CCCN4C)cc3c21 (stereo not shown) | 155 to 157 °C |
| CCOCc1nc2c(N)nc3cc(OCCN)ccc3c2n1CC(O)CO (stereo not shown) (as salt: hydrochloride) [Example 373, dihydrochloride] | 221 to 223 °C |
| CCOCc1nc2c(N)nc3cc(OCCCN4CCCC4=O)ccc3c2n1CCCCN1CCCS1(=O)=O | 142 to 144 °C |
| CCCn1c(CCOC)nc2c(N)nc3cc(OC4CCN(C(=O)OC(C)(C)C)CC4)ccc3c21 | 173 to 175 °C |
| CCCn1c(COCC)nc2c(N)nc3ccc(OCC(=O)N4CCN(C(=O)OC(C)(C)C)CC4)cc3c21 | 192 to 197 °C (dec.) |

Lookup result for CCCc1nc2c(N)nc3cc(OCC(=O)c4ccccc4)ccc3c2n1CC(C)C ; measured melting point: 178 to 180 °C

Lookup result for CCCc1nc2c(N)nc3cc(OCCCNS(C)(=O)=O)ccc3c2n1CC(C)C ; measured melting point: 166.5 to 168.5 °C

Lookup result for CCCn1c(CCOC)nc2c(N)nc3cc(OC4CCN(S(C)(=O)=O)CC4)ccc3c21 ; measured melting point: 224 to 225.5 °C

Lookup result for CCOCc1nc2c(N)nc3cc(OCC(=O)N4CCOCC4)ccc3c2n1CC(C)(C)O ; measured melting point: 209 to 211 °C
